- assay_overview: Novel Modifiers of Survival Motor Neuron (SMN) Protein: Gene Identification via Genome-wide siRNA Screen;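 note: luminescence tracks full-length SMN protein made from the SMN2 reporter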
- measurement_parameters: HEK293T SMN2-luciferase reporter, siRNA knockdown, 72 h; actives lie on both sides
Hit rate of the full screen: of about 31,000 sequences, about 1,400 (4.5%) were called active.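 Rule for the calls: active = median seed-adjusted z-score above 1 or below -1; inactive = the rest.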 The sample as a whole holds a higher share of actives than the screen did.
Output constraint: value belongs to yes (1) for active, no (0) for inactive

AGCCUUUAAUCAUUUCUCATT against ZNF85 :: yes (1)

Consider the additional sequence presented here.
Task: Write down the call the test reported for this sequence. Item: CUACAGUCGGGAACAUGAATT against CLK3
Result: yes (1)

====

- assay_overview: Novel Modifiers of Survival Motor Neuron (SMN) Protein: Gene Identification via Genome-wide siRNA Screen;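 note: luminescence tracks full-length SMN protein made from the SMN2 reporter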
- measurement_parameters: HEK293T SMN2-luciferase reporter, siRNA knockdown, 72 h; actives lie on both sides
Among all 31,000 sequences or so, about 1,400 (4.5%) were called active.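 The calls were made as follows: active = median seed-adjusted z-score above 1 or below -1; inactive = the rest.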 The sample as a whole holds a higher share of actives than the screen did.
Output constraint: value belongs to active, inactive

GUUGAUAAGUUUUACCGAUTT against ADAM19 :: inactive

Task: Write down the call the test reported for this sequence. Item: AAACAAUCCGAAAAUAUGATT against KLK13
Result: inactive

Task: Write down the call the test reported for this sequence. Item: CCUGCCCAAUGUGACCUUUTT against MRC2
Result: active

Task: Write down the call the test reported for this sequence. Item: CGUCCAAGAUCGAACCCAUTT against HIRA
Result: inactive

Task: Write down the call the test reported for this sequence. Item: GCUACACUCAACUACCUGATT against ADCY5
Result: inactive

====

- assay_overview: Novel Modifiers of Survival Motor Neuron (SMN) Protein: Gene Identification via Genome-wide siRNA Screen;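 note: luminescence tracks full-length SMN protein made from the SMN2 reporter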
- measurement_parameters: HEK293T SMN2-luciferase reporter, siRNA knockdown, 72 h; actives lie on both sides
In all, about 31,000 sequences went through this assay and about 1,400 (4.5%) were called active. The full list was thinned out, with actives kept by preference.
Values of median seed-adjusted z-score greater than or equal to 0 map to 1; values below map to -1.

Answered cases to consult:
GAUAAAAGGAUGGAUGAAATT against PRPF6 :: -1
GGAUUUGCCGAAUUAACAATT against RELB :: 1
GAAAGUUCAAGUACAGUGATT against CYP2E1 :: 1
CAUUCGACAUAGAAGAGUUTT against ZNF551 :: -1
CAUUCACGAUCUUCCCGUATT against MYO16 :: -1
CCUUUACAAAUAACGGAUATT against NHLRC2 :: 1

Task: Decide: median seed-adjusted z-score of GAACGAAAGGUCCUCAGUATT against SPATA21 >= 0?
Result: -1

Task: Decide: median seed-adjusted z-score of GCACAGACCUGGUGUGGAATT against NECAB2 >= 0?
Result: -1

====

- assay_overview: Novel Modifiers of Survival Motor Neuron (SMN) Protein: Gene Identification via Genome-wide siRNA Screen;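 note: luminescence tracks full-length SMN protein made from the SMN2 reporter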
- measurement_parameters: HEK293T SMN2-luciferase reporter, siRNA knockdown, 72 h; actives lie on both sides
Screen size: about 31,000 sequences; about 1,400 (4.5%) were called active. Shown is part of a subset that was picked to be rich in actives.
Listing: median seed-adjusted z-score of selected sequences

Known results for sequences:
CCAAAUUCCGCUCUCAUGATT against SFRS9 :: -0.144 (inactive)
CCUACUACCUCAAACACCATT against SYVN1 :: -1.41 (active)
CCUUAAUCCUUUGUUAACATT against KPNA6 :: -1.54 (active)
GAAUGUUCAAGAUCGAUUUTT against RANBP2 :: 1.53 (active)
ACAAGAACCCUGACAAUAATT against DNAJB8 :: -1.09 (active)

Now for the sequence whose median seed-adjusted z-score we want.
Task: median seed-adjusted z-score for CAGAAGUCGUAGUCAUGAATT against RBM39 ?
Result: -1.82 (active)
